Data provenance: patent US8217053B2

Biological target: human recombinant enzyme (full length top1) (Homo sapiens)
Construct: the human recombinant enzyme (full length top1)
Sequence (P11387 1-765): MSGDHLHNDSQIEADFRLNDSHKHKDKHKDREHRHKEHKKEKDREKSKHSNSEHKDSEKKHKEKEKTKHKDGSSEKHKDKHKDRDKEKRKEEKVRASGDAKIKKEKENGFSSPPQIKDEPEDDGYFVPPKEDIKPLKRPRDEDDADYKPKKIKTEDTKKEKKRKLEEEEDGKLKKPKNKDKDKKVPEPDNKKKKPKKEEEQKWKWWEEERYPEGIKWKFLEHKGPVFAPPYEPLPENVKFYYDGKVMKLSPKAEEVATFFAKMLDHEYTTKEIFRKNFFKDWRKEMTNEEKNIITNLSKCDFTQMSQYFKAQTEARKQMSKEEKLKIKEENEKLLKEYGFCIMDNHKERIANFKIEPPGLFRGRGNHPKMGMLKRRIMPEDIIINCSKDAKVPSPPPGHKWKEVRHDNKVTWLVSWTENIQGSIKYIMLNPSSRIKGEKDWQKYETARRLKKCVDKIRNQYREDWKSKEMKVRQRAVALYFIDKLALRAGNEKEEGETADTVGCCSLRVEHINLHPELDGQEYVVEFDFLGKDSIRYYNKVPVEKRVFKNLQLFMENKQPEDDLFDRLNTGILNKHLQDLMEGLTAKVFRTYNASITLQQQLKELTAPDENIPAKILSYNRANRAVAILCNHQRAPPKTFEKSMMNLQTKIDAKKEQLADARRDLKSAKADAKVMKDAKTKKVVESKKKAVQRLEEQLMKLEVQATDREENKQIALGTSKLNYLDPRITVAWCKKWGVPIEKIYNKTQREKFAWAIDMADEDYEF
Assay: Topoisomerase-I-dependent DNA rupture assay (DNA damage persistence)
Assay type: biochemical
Details: time 1 min; 0.6 M NaCl added after 30 min incubation with 10 μM of the drug
Kindly state Persistence of DNA damage (%) for each of the entries shown.
Only the number, expressed in %, is required.

**Query** Given the compound CC[C@@]1(O)C(=O)OCc2c1cc1n(c2=S)Cc2cc3ccccc3nc2-1 [IDN 6070, Thio-camptothecin] , write its reported Persistence of DNA damage (%).
**Result** 33

**Query** Given the compound CCc1c2c(nc3ccc(O)cc13)-c1cc3c(c(=O)n1C2)COC(=O)[C@]3(O)CC [SN38, 10-hydroxy-7-ethylcamptothecin, reference compound] , write its reported Persistence of DNA damage (%).
**Result** 60

**Query** Given the compound CCc1c2c(nc3ccc(O)cc13)-c1cc3c(c(=S)n1C2)COC(=O)[C@]3(O)CC [IDN 6156, ThioSN-38] , write its reported Persistence of DNA damage (%).
**Result** 100

**Query** Given the compound CC[C@@]1(O)C(=O)OCc2c1cc1n(c2=S)C(N=[N+]=[N-])c2cc3ccccc3nc2-1 (stereo partly shown) [IDN 6092] , write its reported Persistence of DNA damage (%).
**Result** 35

**Query** Given the compound CC[C@@]1(O)C(=O)OCc2c1cc1n(c2=O)Cc2cc3c(CN(C)C)c(O)ccc3nc2-1 [Topotecan, reference compound] , write its reported Persistence of DNA damage (%).
**Result** 65

**Query** Given the compound CC[C@@]1(O)C(=O)OCc2c1cc1n(c2=O)Cc2cc3ccccc3nc2-1 [Camptothecin] , write its reported Persistence of DNA damage (%).
**Result** 58

**Query** Given the compound CC[C@@]1(O)C(=O)OCc2c1cc1n(c2=S)Cc2cc3cc(O)ccc3nc2-1 [IDN 6181, 10-hydroxy-Thio-Camptothecin] , write its reported Persistence of DNA damage (%).
**Result** 88

----------
Molecular target: human recombinant enzyme (full length top1) (Homo sapiens)
Construct: the human recombinant enzyme (full length top1)
Experiment: Topoisomerase-I-dependent DNA rupture assay (DNA damage persistence)
Type: biochemical
Conditions: time 10 min; 0.6 M NaCl added after 30 min incubation with 10 μM of the drug
Kindly state Persistence of DNA damage (%) for each of the entries shown.
Only the number, expressed in %, is required.

**Query** Given the compound CC[C@@]1(O)C(=O)OCc2c1cc1n(c2=S)C(N=[N+]=[N-])c2cc3ccccc3nc2-1 (stereo partly shown) , write its reported Persistence of DNA damage (%).
**Result** 15

**Query** Given the compound CC[C@@]1(O)C(=O)OCc2c1cc1n(c2=S)Cc2cc3cc(O)ccc3nc2-1 [IDN 6181, 10-hydroxy-Thio-Camptothecin] , write its reported Persistence of DNA damage (%).
**Result** 22

**Query** Given the compound CC[C@@]1(O)C(=O)OCc2c1cc1n(c2=S)Cc2cc3ccccc3nc2-1 , write its reported Persistence of DNA damage (%).
**Result** 10

**Query** Given the compound CC[C@@]1(O)C(=O)OCc2c1cc1n(c2=O)Cc2cc3c(CN(C)C)c(O)ccc3nc2-1 [Topotecan, reference compound] , write its reported Persistence of DNA damage (%).
**Result** 10

**Query** Given the compound CCc1c2c(nc3ccc(O)cc13)-c1cc3c(c(=S)n1C2)COC(=O)[C@]3(O)CC , write its reported Persistence of DNA damage (%).
**Result** 60

**Query** Given the compound CC[C@@]1(O)C(=O)OCc2c1cc1n(c2=O)Cc2cc3ccccc3nc2-1 , write its reported Persistence of DNA damage (%).
**Result** 20

**Query** Given the compound CCc1c2c(nc3ccc(O)cc13)-c1cc3c(c(=O)n1C2)COC(=O)[C@]3(O)CC [SN38, 10-hydroxy-7-ethylcamptothecin, reference compound] , write its reported Persistence of DNA damage (%).
**Result** 28

----------
Target: human recombinant enzyme (full length top1) (Homo sapiens, UniProt P11387)
Construct: the human recombinant enzyme (full length top1)
Sequence (P11387 1-765): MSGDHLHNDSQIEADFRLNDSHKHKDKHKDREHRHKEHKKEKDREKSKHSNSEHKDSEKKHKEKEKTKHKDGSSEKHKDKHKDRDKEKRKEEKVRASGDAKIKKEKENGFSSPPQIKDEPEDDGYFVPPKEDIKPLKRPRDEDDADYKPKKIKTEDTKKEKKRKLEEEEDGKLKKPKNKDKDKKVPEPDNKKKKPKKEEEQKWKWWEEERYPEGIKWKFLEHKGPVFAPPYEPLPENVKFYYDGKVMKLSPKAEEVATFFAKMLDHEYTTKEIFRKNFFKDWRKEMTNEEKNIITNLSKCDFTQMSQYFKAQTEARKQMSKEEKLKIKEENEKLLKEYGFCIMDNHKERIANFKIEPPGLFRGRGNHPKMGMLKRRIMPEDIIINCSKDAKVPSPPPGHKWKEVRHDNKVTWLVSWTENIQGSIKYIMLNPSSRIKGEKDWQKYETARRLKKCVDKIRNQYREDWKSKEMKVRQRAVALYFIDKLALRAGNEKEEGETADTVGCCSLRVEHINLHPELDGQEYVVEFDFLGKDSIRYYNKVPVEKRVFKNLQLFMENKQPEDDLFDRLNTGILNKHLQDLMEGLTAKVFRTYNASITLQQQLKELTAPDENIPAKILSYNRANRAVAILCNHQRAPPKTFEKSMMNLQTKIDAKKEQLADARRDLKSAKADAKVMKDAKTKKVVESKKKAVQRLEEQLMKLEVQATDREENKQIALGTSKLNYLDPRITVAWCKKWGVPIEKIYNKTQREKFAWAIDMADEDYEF
Experiment: Topoisomerase-I-dependent DNA rupture assay (DNA damage persistence)
Type: biochemical
Conditions: time 5 min; 0.6 M NaCl added after 30 min incubation with 10 μM of the drug
Kindly state Persistence of DNA damage (%) for each of the entries shown.
Include the unit right after the number.

**Query** Provide Persistence of DNA damage (%), tested on human recombinant enzyme (full length top1) (Homo sapiens, UniProt P11387), for CC[C@@]1(O)C(=O)OCc2c1cc1n(c2=O)Cc2cc3c(CN(C)C)c(O)ccc3nc2-1 [Topotecan, reference compound] .
**Result** 20%

**Query** Provide Persistence of DNA damage (%), tested on human recombinant enzyme (full length top1) (Homo sapiens, UniProt P11387), for CCc1c2c(nc3ccc(O)cc13)-c1cc3c(c(=S)n1C2)COC(=O)[C@]3(O)CC [IDN 6156, ThioSN-38] .
**Result** 80%

**Query** Provide Persistence of DNA damage (%), tested on human recombinant enzyme (full length top1) (Homo sapiens, UniProt P11387), for CC[C@@]1(O)C(=O)OCc2c1cc1n(c2=S)Cc2cc3ccccc3nc2-1 [IDN 6070, Thio-camptothecin] .
**Result** 10%

**Query** Provide Persistence of DNA damage (%), tested on human recombinant enzyme (full length top1) (Homo sapiens, UniProt P11387), for CC[C@@]1(O)C(=O)OCc2c1cc1n(c2=O)Cc2cc3ccccc3nc2-1 [Camptothecin] .
**Result** 23%

**Query** Provide Persistence of DNA damage (%), tested on human recombinant enzyme (full length top1) (Homo sapiens, UniProt P11387), for CC[C@@]1(O)C(=O)OCc2c1cc1n(c2=S)Cc2cc3cc(O)ccc3nc2-1 [IDN 6181, 10-hydroxy-Thio-Camptothecin] .
**Result** 50%

**Query** Provide Persistence of DNA damage (%), tested on human recombinant enzyme (full length top1) (Homo sapiens, UniProt P11387), for CCc1c2c(nc3ccc(O)cc13)-c1cc3c(c(=O)n1C2)COC(=O)[C@]3(O)CC [SN38, 10-hydroxy-7-ethylcamptothecin, reference compound] .
**Result** 33%

**Query** Provide Persistence of DNA damage (%), tested on human recombinant enzyme (full length top1) (Homo sapiens, UniProt P11387), for CC[C@@]1(O)C(=O)OCc2c1cc1n(c2=S)C(N=[N+]=[N-])c2cc3ccccc3nc2-1 (stereo partly shown) [IDN 6092] .
**Result** 18%
